target: β subunit (Escherichia coli, UniProt P0A988); assay: Surface plasmon resonance solution affinity analysis (IC50 of free peptide); format: binding, E. coli; conditions: free peptide with 100 nM β, biotinylated peptide 14 on flow cell surface; read-out: IC50 b-peptide 14
Sequence (P0A988 whole entry): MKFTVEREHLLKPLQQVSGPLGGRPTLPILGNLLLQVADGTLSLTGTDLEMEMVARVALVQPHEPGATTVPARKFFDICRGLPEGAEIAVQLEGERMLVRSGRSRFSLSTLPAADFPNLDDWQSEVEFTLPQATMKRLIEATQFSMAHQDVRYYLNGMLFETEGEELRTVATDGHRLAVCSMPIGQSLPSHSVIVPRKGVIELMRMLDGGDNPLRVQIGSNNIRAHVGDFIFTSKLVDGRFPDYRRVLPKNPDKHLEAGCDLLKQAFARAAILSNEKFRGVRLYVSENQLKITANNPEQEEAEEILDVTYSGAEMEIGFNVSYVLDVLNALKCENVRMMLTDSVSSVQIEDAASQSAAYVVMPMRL
Where no end group is shown, it is not given here.
result_type: IC50

# chain, IC50
data = [
    ("IGQLDLFGV [Peptide 14]", "500 nM"),
]

Which IC50 is listed for IGQLSLFGV [Peptide 13] ?
550 nM

====

biological target: binding of E. coli δ to E. coli β (Escherichia coli); experiment: biochemical; conditions: IC50 δ:β, Table 24
Where no end group is shown, it is not given here.
result_type: pIC50
Scale note: pIC50 = -log10(concentration in M).

# chain, system_name, pIC50
rows = [
    ("IGQMSLLGV [Peptide 110e]", "binding of E. coli δ to E. coli β (Escherichia coli)", 5.15),
]

Fill blank: measured pIC50 of the sequence IGQLGLFGV [Peptide 110f] is ____.
5.02

pIC50 for IGQLVLGLGV [Peptide 110b] ?
5.17

Return reported pIC50; argument: IGQLNLFGV [Peptide 110d]
4.94

// returns reported pIC50 for input IGQLSLFGV [Peptide 13]
5.23

Quick one: pIC50 of IGQLSLPLGV [Peptide 110c] ?
5.48

====

Overview of recorded IC50 for various sequences
biological target: binding of E. coli δ to E. coli β (Escherichia coli, UniProt P0A988); assay: biochemical; details: IC50 δ (inhibition of binding of δ to β), Table 17; δ-coated plate, β 1 μg/ml
Sequence (P0A988 whole entry): as above
Where no end group is shown, it is not given here.
Your answer should be a plain number; it is taken to be in µM.

# chain, IC50, µM
rows = [
    ("IGQLSLFGV [Peptide 13]", 10.2),
]

As a next step, examine the sequence that follows.
Endpoint output: IC50 of IGQLDLFGV [pep14] . Value?
9.16

====

target: UniProt:P0A988; assay: biochemical; conditions: IC50 δ (inhibition of binding of δ to β), Table 17; δ-coated plate, β 1 μg/ml
Where a SMILES comes first, the peptide text is derived from it.
result_type: pIC50
By convention, pIC50 is the negative base-10 log of a molar concentration.

For CC(C)C[C@H](NC(=O)[C@@H](N)CC(=O)O)C(=O)N[C@@H](Cc1ccccc1)C(=O)O [pep16] (H-Asp-Leu-Phe-OH; N-terminus and C-terminus assumed) , what is its reported pIC50?
2.52

====

As shown below, each of these sequences has a reported pKd value.
biological target: β subunit (Escherichia coli); assay: biochemical; assay type: binding, E. coli; settings: SPR, 1:1 Langmuir model, biotinylated peptide on surface; read-out: KD
Where no end group is shown, it is not given here.
Scale for pKd: -log10 of concentration given in mol/L; no unit attached.

Given the entry IGQLDLFGV [Peptide 14] , report its measured pKd.
6.10

What value of measured pKd is listed for IGQLSLFGV [Peptide 13] ?
6.11

====

molecular target: binding of E. coli α to E. coli β (Escherichia coli, UniProt P0A988); construct: made in house; test: biochemical; details: Table 24; buffer BB37 (10 mM MnCl2); read-out: IC50 α:β
Sequence (P0A988 whole entry): as above
Where no end group is shown, it is not given here.
Lab note: compare IC50 with 9 µM, writing true if less and false if equal or more.

// below: answered sequences
# chain, class
rows = [
    ("IGQLNLFGV [Peptide 110d]", "true"),
    ("IGQMSLLGV [Peptide 110e]", "false"),
    ("IGQLVLGLGV [Peptide 110b]", "false"),
]

API: query returns whether the sequence falls strictly under 9 µM in IC50. Query: IGQAMSLFGV [Peptide 110a]
false

Bench note: check whether IGQLGLFGV [Peptide 110f] shows IC50 below 9 µM
false

Is the reported IC50 for IGQLSLPLGV [Peptide 110c] strictly below 9 µM?
true

Input IGQLSLFGV [Peptide 13] ; condition: IC50 strictly below 9 µM. Does it hold?
true

====

target: β subunit (Escherichia coli); experiment: biochemical; type: binding, E. coli; details: KD, SPR, biotinylated peptide on flow cell surface, 1:1 Langmuir model
Where no end group is shown, it is not given here.
result_type: pKd
The value called pKd is obtained by taking minus log10 of the concentration in mol/L.

// pKd lookup, key: IGQLDMFGV [Peptide 1]
6.25

====

Biological target: β subunit (Escherichia coli)
Assay: Surface plasmon resonance solution affinity analysis (IC50 of free peptide)
Format: binding, E. coli
Conditions: free peptide with 100 nM β, biotinylated peptide 1 on flow cell surface; read-out: IC50 b-peptide 1
Description: Reverse phase HPLC purified peptides (10 μg) were reacted with 1 mg biotin-linker (6-(6-((biotinoyl)amino(hexanoyl) amino) hexanoic acid) sulphosuccinimidyl ester; Molecular Probes, Eugene, Oreg.) (20 mg/ml in DMSO) in 75 mM sodium borate (pH8.5) overnight (RT) with rotation. […] Biotinylated peptides that eluted later than the biotin-linker and free peptide, were collected, vacuum dried and then dissolved in water. […]
Where no end group is shown, it is not given here.
Recorded IC50 for the following sequences
# value in nM; strip the unit string

# chain, IC50, nM
measured = [
    ("IGQLDLFGV [Peptide 14]", 400),
]

Next:
Lab note: need IC50 with β subunit (Escherichia coli) for entry IGQLSLFGV [Peptide 13] , please look it up.
440

====

A collection of sequences and their measured IC50
molecular target: binding of E. coli δ to E. coli β (Escherichia coli, UniProt P0A988); test: biochemical
Where no end group is shown, it is not given here.
Write the number in µM without appending the unit.

# chain, number
rows = [
    ("IGQLDMFGV [pep1]", 13.2),
]

Attention now turns to another entry.
Which measured IC50 value corresponds to EAQLDLFDS [Peptide 112d] ?
3.6

====

molecular target: β subunit (Escherichia coli); test: Surface plasmon resonance solution affinity analysis (IC50 of free peptide); type: binding, E. coli; settings: IC50 b-peptide 14, free peptide with 100 nM β, biotinylated peptide 14 on flow cell surface
Where no end group is shown, it is not given here.
result_type: pIC50
Recall that pIC50 is obtained by taking minus log10 of the concentration measured in molar.

Entry IGQLDMFGV [Peptide 1] : reported pIC50 = ?
6.00

====

target: binding of E. coli α to E. coli β (Escherichia coli, UniProt P0A988); construct: made in house; test: biochemical; settings: α:β binding, 50% inhibition, plate inhibition assay
pIC50: −log10 of the molar value. Where a SMILES comes first, the peptide text is derived from it.
result_type: pIC50

Please look up its pIC50: CC(C)C[C@H](NC(=O)[C@@H](N)CC(=O)O)C(=O)N[C@@H](Cc1ccccc1)C(=O)O [DLF] (H-Asp-Leu-Phe-OH; N-terminus and C-terminus assumed)
~3.46

====

target: binding of E. coli α to E. coli β (Escherichia coli, UniProt P0A988); construct: made in house; assay: biochemical; conditions: Table 21; NCI compounds, buffer BB14; read-out: IC50 α-binding
result_type: IC50 (µM)
Only the number, expressed in µM, is required.

Record lookup: for binding of E. coli α to E. coli β (Escherichia coli, UniProt P0A988), what IC50 belongs to NC(CCC(=O)NC(CSCC(=O)c1ccc(Br)cc1)C(=O)NCC(=O)O)C(=O)O (centres unmarked) [Peptide 131123] ?
210

====

molecular target: β subunit (Escherichia coli); assay: Surface plasmon resonance solution affinity analysis (IC50 of free peptide); assay type: binding, E. coli; conditions: IC50 b-peptide 1, free peptide with 100 nM β, biotinylated peptide 1 on flow cell surface
Where no end group is shown, it is not given here.
result_type: pIC50
# reply with the number alone; pIC50 is -log10 of concentration in mol/L

pIC50 lookup needed for IGQLDMFGV [Peptide 1] , thanks.
6.04

====

molecular target: β subunit (Escherichia coli, UniProt P0A988); test: biochemical; type: binding, E. coli; settings: SPR, biotinylated peptide on flow cell surface, 1:1 Langmuir model; read-out: KD
Where no end group is shown, it is not given here.
result_type: pKd
Remember the convention: pKd equals -log10 of concentration in molar.

# chain, number
measured = [
    ("IGQLDLFGV [Peptide 14]", 6.11),
]

Consider the additional sequence presented here.
What is its pKd for β subunit (Escherichia coli, UniProt P0A988)? Entry: IGQLSLFGV [Peptide 13]
6.10

====

target: UniProtKB P0A988; test: biochemical; settings: IC50 δ-binding, Table 21
Each entry below lists one item and its recorded IC50 value.
Express the result in µM but write the number alone.

# compound, measurement_unit, IC50
rows = [
    ("CC(C)(C)OC(=O)NCC(=O)NC(CSC(c1ccccc1)c1ccccc1)C(=O)NCC(=O)O (stereo not shown) [Peptide 338500]", "µM", 146),
]

Data request, read-out IC50, for CCC/C(=N\OC/C(Cl)=C/c1ccc(Cl)cc1)C1C(=O)CC(C)(C)CC1=O [AOC-07877]
90
